TEST SUMMARY: Blood Level (im, 20mg/kg)
Assay type: in vivo
CONDITION CONTEXT: blood, im, 20 mg/kg, im, read-out: Blood Level peak conc.
READOUT KIND: Cmax (ng/mL)
Please give a number only; it is taken to be in ng/mL.

Req: Identify Cmax associated with the compound CCN1CCN(C(=O)N[C@@H](C(=O)N[C@@H]2C(=O)N3[C@@H]2SC(C)(C)[C@@H]3C(=O)O)c2ccccc2)C(=O)C1=O [piperacillin, reference compound]
Resp: 4900

Req: Identify Cmax associated with the compound CCN1CCN(C(=O)NC(C(=O)N[C@@H]2C(=O)N3[C@@H]2SC(C)(C)[C@@H]3C(=O)O)c2ccc(O)c(O)c2)C(=O)C1=O (mixture of isomers) [BB-P 652]
Resp: 8300

Req: Identify Cmax associated with the compound CCN1CCN(C(=O)N[C@H](C(=O)N[C@@H]2C(=O)N3[C@@H]2SC(C)(C)[C@@H]3C(=O)O)c2ccc(O)c(O)c2)C(=O)C1=O [BB-P 660]
Resp: 4000

Req: Identify Cmax associated with the compound CCN1CCN(C(=O)N[C@@H](C(=O)N[C@@H]2C(=O)N3[C@@H]2SC(C)(C)[C@@H]3C(=O)O)c2ccc(O)c(O)c2)C(=O)C1=O [BB-P 661]
Resp: 4000

Origin of values: patent US4206116A
